The following compounds are shown together with reported melting point values.

Examples with their reported melting point follow.
CCCCCS(=O)(=O)NC(=O)/C=C/c1ccc(OC(COCC)COCC)cc1Oc1ncc(C(F)(F)F)cc1Cl [Example 198]    83 to 85.5 °C
CCCCOc1cc(CCS(=O)(=O)NC(=O)OCCC)n(Cc2ccc(Cl)cc2Cl)n1 [Example 132]    92 to 94 °C
C=CCCOc1ccc(CCCOC(=O)NS(=O)(=O)NCCOC(C)C)c(Oc2ncc(C(F)(F)F)cc2Cl)c1 [Example 475]    111.1 to 113 °C
CCCCCCS(=O)(=O)NC(=O)CCc1cc(OC(C)C)nn1Cc1ccc(Cl)cc1Cl [Example 87]    103 to 106 °C
C/C(=C\c1ccc(OC(C)C)cc1Oc1ncc(C(F)(F)F)cc1Cl)C(=O)NS(=O)(=O)NCC1CCCO1 (centres unmarked) [Example 231]    125.3 to 126.5 °C

melting point reported for this compound CCCCCS(=O)(=O)NC(=O)/C=C/c1ccc(OCCOC)cc1Oc1ncc(NC(C)=O)cc1C [Example 463] : 187.9 to 188.2 °C

melting point reported for this compound COCCOc1ccc(CCC(=O)NS(=O)(=O)c2ccc(OC)cc2)c(Oc2ncc(C(F)(F)F)cc2Cl)c1 [Example 7] : 118 to 120 °C

melting point reported for this compound COCCOc1ccc(CCCNS(=O)(=O)c2cccc(Cl)c2)c(Oc2ncc(C(F)(F)F)cc2Cl)c1 [Example 24] : 110 to 114 °C
